- Target system: human P2X7 receptor (Homo sapiens, UniProt Q99572, R270H/Y155H)
- Test name: Evaluation of human P2X7 receptor inhibitory activity (Yo-Pro uptake, BzATP stimulation, FLIPR TETRA)
- Type: cell-based
- Condition info: antagonistic activity for the human P2X7 receptor; read-out: IC50
Measured IC50 by item

Answered cases to consult:
Cc1nn(Cc2cc(F)c(F)c(F)c2)c(Nc2ccc3[nH]ccc3c2C)nc1=O [Compound I-1262] ... < 10 nM
COc1cn(Cc2ccccc2)c(Nc2cc(S(C)(=O)=O)cc(C)c2C)nc1=O [Compound I-0754] ... 10 to 100 nM
Cc1cc(C)c(Nc2nc(=O)c(F)cn2Cc2cc(F)c(F)c(F)c2)cc1F [Compound I-1238] ... < 10 nM
COc1cc(C)c(Nc2nc(=O)c(C)nn2Cc2cc(F)c(F)c(F)c2)cc1OC [Compound I-1266] ... 10 to 100 nM
COc1ccc(Nc2nc(=O)cnn2Cc2cc(F)cc(Cl)c2)c(C)c1 [Compound I-1269] ... 10 to 100 nM

QUERY: Request - read-out IC50 | tested on human P2X7 receptor (Homo sapiens, UniProt Q99572, R270H/Y155H) | compound COc1cn(Cc2cc(F)cc(F)c2)c(Nc2cc3c(cc2C)OCCC3)nc1=O [Compound I-0913]
RESULT: 10 to 100 nM

QUERY: Request - read-out IC50 | tested on human P2X7 receptor (Homo sapiens, UniProt Q99572, R270H/Y155H) | compound COc1ccc(Cl)c(Nc2nc(=O)c(OC)cn2Cc2cc(F)cc(F)c2)c1 [Compound I-0639]
RESULT: 10 to 100 nM

QUERY: Request - read-out IC50 | tested on human P2X7 receptor (Homo sapiens, UniProt Q99572, R270H/Y155H) | compound COc1cn(Cc2ccc(F)c(Cl)c2)c(Nc2ccc3c(c2C)OC(F)(F)C(F)(F)O3)nc1=O [Compound I-0824]
RESULT: 10 to 100 nM

QUERY: Request - read-out IC50 | tested on human P2X7 receptor (Homo sapiens, UniProt Q99572, R270H/Y155H) | compound COc1cn(Cc2cc(F)cc(F)c2)c(Nc2cc(Cl)ccc2C)nc1=O [Compound I-0593]
RESULT: 10 to 100 nM

QUERY: Request - read-out IC50 | tested on human P2X7 receptor (Homo sapiens, UniProt Q99572, R270H/Y155H) | compound COc1cc(Nc2nc(=O)c(F)cn2Cc2cc(F)c(F)c(F)c2)c(C)nc1OC [Compound I-1235]
RESULT: < 10 nM

Reference source: patent US10774051B2
